Provenance of the data: patent US4880807A

Parameter LD50 at 336 h: see the listing below.
test: oral toxicity in mice (LD50, mortality over 14 days)
condition.details: mouse, in vivo, po, LD50, oral (esophageal tube), male mice, groups of 10 to 20, 14 days; Table II

O=C(c1cccnc1)N1CCN(c2ccccc2F)CC1 : 1000 mg/kg
Cc1ccccc1N1CCN(C(=O)c2cccnc2)CC1 : > 1000 mg/kg
Cc1cc(Cl)ccc1N1CCN(C(=O)c2cccnc2)CC1 : 540 mg/kg
COc1ccc(N2CCN(C(=O)c3cccnc3)CC2)cc1 : > 1000 mg/kg
Cc1ccc(Cl)cc1N1CCN(C(=O)c2cccnc2)CC1 : > 1000 mg/kg
Cc1cccc(C)c1N1CCN(C(=O)c2cccnc2)CC1 : > 1000 mg/kg
O=C(c1cccnc1)N1CCN(c2ccccc2Cl)CC1 : > 1000 mg/kg
CC(=O)c1ccc(N2CCN(C(=O)c3cccnc3)CC2)cc1 : > 1000 mg/kg

[in] Supply LD50 at 336 h value. Item: `O=C(c1cccnc1)N1CCN(c2cccc(Cl)c2)CC1`
[out] 501 mg/kg

[in] Return LD50 at 336 h for the following molecule: `Cc1cccc(Cl)c1N1CCN(C(=O)c2cccnc2)CC1`
[out] > 1000 mg/kg

[in] Output measured LD50 at 336 h for this item: `CCOc1ccccc1N1CCN(C(=O)c2cccnc2)CC1`
[out] 1000 mg/kg
